# testTarget: human ALK2 R206H (Homo sapiens, UniProt Q04771, R206H)
# Sequence (Q04771 21-509 R206H): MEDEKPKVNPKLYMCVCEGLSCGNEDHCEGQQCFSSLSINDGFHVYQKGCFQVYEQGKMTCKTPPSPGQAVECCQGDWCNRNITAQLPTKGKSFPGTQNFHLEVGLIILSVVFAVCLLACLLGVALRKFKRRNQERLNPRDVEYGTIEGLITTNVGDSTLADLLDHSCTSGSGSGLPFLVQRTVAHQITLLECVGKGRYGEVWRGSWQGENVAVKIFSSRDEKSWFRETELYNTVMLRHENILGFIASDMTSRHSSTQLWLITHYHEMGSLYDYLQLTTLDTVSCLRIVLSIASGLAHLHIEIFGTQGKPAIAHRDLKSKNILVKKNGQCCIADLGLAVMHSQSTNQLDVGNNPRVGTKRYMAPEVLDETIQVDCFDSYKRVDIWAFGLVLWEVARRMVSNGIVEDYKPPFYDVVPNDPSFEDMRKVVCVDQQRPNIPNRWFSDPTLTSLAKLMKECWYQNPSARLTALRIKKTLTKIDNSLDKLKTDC
# assayInfo: Cell-based ALK2-R206H cell activity assay (Smad1-Ser463/Ser465 phosphorylation by AlphaLISA in HEK293-ALK2-R206H cells)
# runParameters: phospho-Smad1 AlphaLISA, read-out: Cell Line (Cell Assay, IC50 class)
IC50 by entry:

(Q) Find the measured IC50 of C[C@@H](CF)OC(=O)N1CCN(c2ccnc3[nH]c(-c4cnn(C)c4)cc23)CC1 [Compound 117] and report it.
(A) ≤ 100 nM

More entries:
(Q) Find the measured IC50 of CC(C)N1CCC(c2ccc(-c3cc4c(N5CCN(C(=O)OC6COC6)CC5)ccnc4[nH]3)nc2)CC1 [Compound 469] and report it.
(A) ≤ 100 nM

(Q) Find the measured IC50 of N#Cc1c(-c2nc3c(s2)COCC3)[nH]c2nccc(N3CCN(C(=O)OC4CC4)CC3)c12 [Compound 395] and report it.
(A) ≤ 100 nM

(Q) Find the measured IC50 of CCOC(=O)N1CCN(c2ccnc3[nH]c(-c4ccc(C5(OC)CCN(C(C)CF)CC5)cn4)cc23)CC1 (stereo not shown) [Compound 476] and report it.
(A) ≤ 100 nM

(Q) Find the measured IC50 of CC(C)N1CCC(c2ccc(-c3cc4c(N5CCN(C(=O)OC6COC6)CC5)ccnc4[nH]3)cc2)CC1 [Compound 467] and report it.
(A) ≤ 100 nM
